# System: UGT enzymes of human liver microsomes
# Construct: other: liver 062101
# protocolNotes: Inhibition of 2ME2 glucuronidation (MG1, MG2) in human liver microsomes
# Type: biochemical
# experimentalParameters: liver 062101; 2ME2 50 μM; inhibitor 50 μM
In this section, each of the compounds is paired with its reported residual metabolism (% of control), 2ME2 MG2.

These recorded examples may help you get a feel for the data.
>  <compound>
CC1CCC(C(C)C)C(O)C1 (stereo not drawn)

>  <subjectOfTest>
UGT enzymes of human liver microsomes

>  <obsValue>
86 (1) %

$$$$
>  <compound>
O=C(O)c1cc(-c2ccc(F)cc2F)ccc1O [Diflunisal, reference compound]

>  <subjectOfTest>
UGT enzymes of human liver microsomes

>  <obsValue>
90 (5) %

$$$$

Consider the record given below.
Would you kindly share the measured residual metabolism (% of control), 2ME2 MG2 for O=C(O[C@@H]1Cc2c(O)cc(O)cc2O[C@H]1c1cc(O)c(O)c(O)c1)c1cc(O)c(O)c(O)c1 [Gallocatechin gallate] ?
61 (1) %

====

# System: UGT enzymes of human liver microsomes
# Construct: percentage of control metabolism, 7-HFC glucuronidation; percentage of control metabolism, 7-HFC glucuronidation
# protocolNotes: Inhibition of 7-HFC glucuronidation in human liver microsomes
# Format: biochemical
# experimentalParameters: inhibitor 500 μM
measurementName: percentage of control metabolism, 7-HFC glucuronidation

These recorded examples may help you get a feel for the data.
>  <compound>
O=C(OC[C@H]1O[C@@H](OC(=O)c2cc(O)c(O)c(OC(=O)c3cc(O)c(O)c(O)c3)c2)[C@H](OC(=O)c2cc(O)c(O)c(OC(=O)c3cc(O)c(O)c(O)c3)c2)[C@@H](OC(=O)c2cc(O)c(O)c(OC(=O)c3cc(O)c(O)c(O)c3)c2)[C@@H]1OC(=O)c1cc(O)c(O)c(OC(=O)c2cc(O)c(O)c(O)c2)c1)c1cc(O)c(O)c(OC(=O)c2cc(O)c(O)c(O)c2)c1

>  <obsValue>
0 (0) %

$$$$
>  <compound>
Cc1ccc(C(C)C)cc1O

>  <obsValue>
31 (1) %

$$$$
>  <compound>
O=C(O[C@@H]1Cc2c(O)cc(O)cc2O[C@@H]1c1cc(O)c(O)c(O)c1)c1cc(O)c(O)c(O)c1 [Epigallocatechin gallate]

>  <obsValue>
5 (1) %

$$$$

Consider the record given below.
Requested read-out percentage of control metabolism, 7-HFC glucuronidation, target or system UGT enzymes of human liver microsomes, entry O=C(O[C@@H]1Cc2c(O)cc(O)cc2O[C@H]1c1cc(O)c(O)c(O)c1)c1cc(O)c(O)c(O)c1 [Gallocatechin gallate]
0 (0) %

====

# Tested on: UGT enzymes of human liver microsomes
# Construct: other: liver 062101
# protocolNotes: Inhibition of 2ME2 glucuronidation (MG1, MG2) in human liver microsomes
# Type: biochemical
# experimentalParameters: liver 062101; 2ME2 50 μM; inhibitor 25 μM
In this section, each of the molecules is paired with its reported residual metabolism (% of control), 2ME2 MG2.

>  <molecule>
O=C(OC[C@H]1O[C@@H](OC(=O)c2cc(O)c(O)c(OC(=O)c3cc(O)c(O)c(O)c3)c2)[C@H](OC(=O)c2cc(O)c(O)c(OC(=O)c3cc(O)c(O)c(O)c3)c2)[C@@H](OC(=O)c2cc(O)c(O)c(OC(=O)c3cc(O)c(O)c(O)c3)c2)[C@@H]1OC(=O)c1cc(O)c(O)c(OC(=O)c2cc(O)c(O)c(O)c2)c1)c1cc(O)c(O)c(OC(=O)c2cc(O)c(O)c(O)c2)c1

>  <obsValue>
49 (7) %

$$$$
>  <molecule>
O=C(c1ccc(OCCN2CCCCC2)cc1)c1c(-c2ccc(O)cc2)sc2cc(O)ccc12 [Raloxifene, raloxifene, reference compound]

>  <obsValue>
70 (0) %

$$$$
>  <molecule>
O=C(O[C@@H]1Cc2c(O)cc(O)cc2O[C@@H]1c1ccc(O)c(O)c1)c1cc(O)c(O)c(O)c1 [Epicatechin gallate]

>  <obsValue>
79 (2) %

$$$$
>  <molecule>
O=C(O[C@@H]1Cc2c(O)cc(O)cc2O[C@@H]1c1cc(O)c(O)c(O)c1)c1cc(O)c(O)c(O)c1 [Epigallocatechin gallate]

>  <obsValue>
79 (0) %

$$$$

Consider the record given below.
Would you kindly share the measured residual metabolism (% of control), 2ME2 MG2 for "O=c1c(O)c(-c2ccc(O)c(O)c2)oc2cc(O)cc(O)c12" ?
87 (3) %
